- Condition Details: Sesame oil; heating temp. 60 °C, obs. temp. 25 °C
Catalogue of compounds with associated Approximate Solubility (mg/mL) in Excipient: Sesame oil

| Chemical String | Experimental Result |
| --- | --- |
| C=C1CC[C@@]2(O)C3Cc4ccc(OC(=O)OCCCCCCCCCCCCCCC)c5c4[C@@]2(CCN3CC2CC2)[C@H]1O5 | >410 mg/mL |
| CCCCCCCCCCCCCCC(=O)Oc1ccc2c3c1O[C@H]1C(=O)CC[C@@]4(O)C(C2)N(CC2CC2)CC[C@]314 | 99.4 to 198.8 mg/mL |
| C=C1CC[C@@]2(O)C3Cc4ccc(OC(=O)CCCCCCC/C=C\C/C=C\C/C=C\CC)c5c4[C@@]2(CCN3CC2CC2)[C@H]1O5 | 80 to 100 mg/mL |
| C=C1CC[C@@]2(O)C3Cc4ccc(OC(=O)CCCCCCC/C=C\CCCCCCCC)c5c4[C@@]2(CCN3CC2CC2)[C@H]1O5 | >408 mg/mL |
| C=C1CC[C@@]2(O)C3Cc4ccc(OC(=O)OCCCCCCCCCCCC)c5c4[C@@]2(CCN3CC2CC2)[C@H]1O5 | >386 mg/mL |
| C=C1CC[C@@]2(O)C3Cc4ccc(OC(=O)OCCCCCCCCCC)c5c4[C@@]2(CCN3CC2CC2)[C@H]1O5 | >402 mg/mL |
| C=C1CC[C@@]2(O)C3Cc4ccc(OCOC(=O)CCCCCCCCCCCCC)c5c4[C@@]2(CCN3CC2CC2)[C@H]1O5 | 267 to 288 mg/mL |
| CCCCCCCC/C=C\CCCCCCCC(=O)Oc1ccc2c3c1O[C@H]1C(=O)CC[C@@]4(O)C(C2)N(CC2CC2)CC[C@]314 | <50 mg/mL |

Asked: // lookup Approximate Solubility (mg/mL) in Excipient: Sesame oil for `C=C1CC[C@@]2(O)C3Cc4ccc(OC(=O)OCCCCCCCCCCCCCCCCCCCC)c5c4[C@@]2(CCN3CC2CC2)[C@H]1O5`
Given back: <50.6 mg/mL

Asked: Also `CCCCCCCCCCCCCCCC(=O)OCOc1ccc2c3c1O[C@H]1C(=O)CC[C@@]4(O)C(C2)N(CC2CC2)CC[C@]314` ?
Given back: <51 mg/mL

Asked: Also `C=C1CC[C@@]2(O)C3Cc4ccc(OC(=O)CCCCCCCCCCC/C=C\CCCCCCCC)c5c4[C@@]2(CCN3CC2CC2)[C@H]1O5` ?
Given back: 91 to 121 mg/mL

---

- Assay Procedure: Plasma stability assay, rat plasma
- Type: in vitro ADME
- Condition Details: 10 μM, 37° C., 120 min
The label met is reserved for % remaining at time point strictly under 60%; not met covers values equal to or above it.

| Molecule | Group Label |
| --- | --- |
| C=C1CC[C@@]2(O)C3Cc4ccc(OC(=O)CCCCCCCCCCCCCCCCCCCCC)c5c4[C@@]2(CCN3CC2CC2)[C@H]1O5 | not met |
| C=C1CC[C@@]2(O)C3Cc4ccc(OC(=O)OCCCCCCCCCCCCC)c5c4[C@@]2(CCN3CC2CC2)[C@H]1O5 | met |
| C=C1CC[C@@]2(O)C3Cc4ccc(OC(=O)OCCCCCCCCCCCCCCCC)c5c4[C@@]2(CCN3CC2CC2)[C@H]1O5 | not met |
| C=C1CC[C@@]2(O)C3Cc4ccc(OC(=O)CCCCCCC/C=C/CCCCCCCC)c5c4[C@@]2(CCN3CC2CC2)[C@H]1O5 | not met |
| C=C1CC[C@@]2(O)C3Cc4ccc(OC(=O)OCCCCCCCCCC)c5c4[C@@]2(CCN3CC2CC2)[C@H]1O5 | met |

Asked: Is the reported % remaining at time point for `CCCCCCCCCCCCCC(=O)Oc1ccc2c3c1O[C@H]1C(=O)CC[C@@]4(O)C(C2)N(CC2CC2)CC[C@]314` strictly below 60%?
Given back: met
